# assay comment: Plasma pharmacokinetics of pemigatinib (LC–MS/MS, non-compartmental), phase I
# Assay type: in vivo, human (Chinese patients)
# condition: human, plasma, po, 13.5 mg, 13.5 mg oral QD, C1D14 (steady state), N=12; read-out: Vz/F, mean ± STD
measured metric: Vd/F (L)
Give bare numbers, in L.

Per the records, this molecule ( `CCN1C(=O)N(c2c(F)c(OC)cc(OC)c2F)Cc2cnc3[nH]c(CN4CCOCC4)cc3c21` ) has Vd/F equal to 179

====

# assay comment: Plasma pharmacokinetics of pemigatinib (LC–MS/MS, non-compartmental), phase I
# Assay type: in vivo, human (Chinese patients)
# condition: human, plasma, po, 13.5 mg, 13.5 mg oral QD, C1D1, N=12; read-out: AUC0-24, mean ± STD
measured metric: AUC(0-t) (µM·h)
Give bare numbers, in µM·h.

Memo: `CCN1C(=O)N(c2c(F)c(OC)cc(OC)c2F)Cc2cnc3[nH]c(CN4CCOCC4)cc3c21` , reported AUC(0-t): 2.24
